biological target: DLG1_2, Q12959; assay: holdup assay; set-up: key: below the threshold = too weak to quantify, mostly under pKd 3.1 to 4; details: plain residues with an end cap or a label only (N-terminal biotin on a linker: ado-ado)
Sequence (Q12959 314-412): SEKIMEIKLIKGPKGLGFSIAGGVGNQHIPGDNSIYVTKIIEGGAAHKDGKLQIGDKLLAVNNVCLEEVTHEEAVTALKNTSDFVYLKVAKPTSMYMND
Experimental Readout: pKd
Reply with the value as a number alone.

// worked examples, pKd included
Binder	pKd
REEPDHSTEV [CCRL2, O00421]	4.77
PSVGSKKTVL [REELD1, A0A1B0GV85]	3.79
RSSGGDDFWF [KCNV1, Q6PIU1]	3.67

Lab note: next binder to report on.
// query What value of pKd has been recorded for this entry: EKCGKEFSEF [PRKACA, P17612]
// result 3.52
